Molecular target: mouse RORγ (Mus musculus, UniProt P51450)
Construct: mouse RORγ, from Ile251 to Lys516; expressed in transfected cells; host or cells: CHO cells (Chinese hamster ovary), transient co-transfection with pG5-Luc
Assay: In vitro assay of inhibitory effect against RORγ transcriptional activity (GAL4-mRORγ LBD luciferase reporter gene assay in CHO cells)
Type: cell-based
Settings: value in parentheses beside the EC50 bound; vehicle-control 0.2% DMSO alone = 100%
parameter-measured: mRORγ luciferase activity, %-of-control

The examples below pair each entry with its known result.
# molecule, mRORγ luciferase activity, %-of-control
rows = [
    ("CC(C)CS(=O)(=O)c1ccc([C@]2(C)NC(=O)N(CCC(=O)O)C=C2C(C)C)cc1Cl [Example 219]", "(86%)"),
    ("CC(C)C[S+]([O-])c1ccc([C@]2(C)NC(=O)N(CCC(=O)O)C=C2C(C)C)cc1Cl (mixture of isomers) [Example 215]", "(70%)"),
    ("CC(C)CCS(=O)(=O)c1ccc([C@]2(C)NC(=O)N(CCC(=O)O)C=C2C(C)C)cc1Cl [Example 216]", "(76%)"),
    ("CC(C)CC[S+]([O-])c1ccc([C@]2(C)NC(=O)N(CCC(=O)O)C=C2C(C)C)cc1Cl (mixture of isomers) [Example 217]", "(77%)"),
    ("COc1cc([C@@]2(C)NC(=O)N(CCC(=O)O)C=C2C(C)C)ccc1CCC(C)(C)C [Example 212]", "(81%)"),
]

Give mRORγ luciferase activity, %-of-control for the following molecule: CC(C)C1=CN(CCC(=O)O)C(=O)N[C@@]1(C)c1ccc([S+]([O-])C2CCCC2)c(Cl)c1 (mixture of isomers) [Example 223]
(70%)

Give mRORγ luciferase activity, %-of-control for the following molecule: COC(=O)[C@H]1C[C@H](N2C=C(C(C)(C)CCCO)[C@@](C)(c3ccc(CCC(C)(C)C)c(Cl)c3)NC2=O)C1 (single isomer, unassigned) [Example 190]
(66%)

Give mRORγ luciferase activity, %-of-control for the following molecule: CC(C)C1=CN(CCC(=O)O)C(=O)N[C@@]1(C)c1ccc(S(=O)(=O)C2CCCC2)c(Cl)c1 [Example 227]
(87%)

###

Molecular target: human RORγ (Homo sapiens, UniProt P51449)
Construct: human RORγ, from Ser253 to Lys518; expressed in transfected cells; host or cells: CHO cells (Chinese hamster ovary), transient co-transfection with pG5-Luc
Sequence (P51449 253-518): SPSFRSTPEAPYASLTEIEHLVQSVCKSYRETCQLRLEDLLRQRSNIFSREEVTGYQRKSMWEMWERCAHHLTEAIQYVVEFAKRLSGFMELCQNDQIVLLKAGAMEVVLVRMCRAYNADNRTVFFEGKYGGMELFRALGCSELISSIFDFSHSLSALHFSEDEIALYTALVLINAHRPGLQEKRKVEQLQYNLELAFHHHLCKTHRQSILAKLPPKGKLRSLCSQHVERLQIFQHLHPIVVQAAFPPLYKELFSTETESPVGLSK
Experiment: In vitro assay of inhibitory effect against RORγ transcriptional activity (GAL4-hRORγ LBD luciferase reporter gene assay in CHO cells)
Assay type: cell-based
Settings: value in parentheses beside the EC50 bound; vehicle-control 0.2% DMSO alone = 100%
Protocol: In Vitro Assay of Inhibitory Effect Against RORγ Transcriptional Activity Inhibitory effect of a test article on transcriptional activity of RORγ was measured by means of the following reporter gene assay. […] RORγ transcriptional activity was detected as the intracellular luciferase activity using SteadyLite HTS Reporter Gene Assay System (Perkin Elmer). […] After the incubation at room temperature for 10 minutes, luminescence of each well was measured by a microplate reader. […]

# compound, study-target, hRORγ luciferase activity, %-of-control
rows = [
    ("CC(C)CS(=O)(=O)c1ccc([C@]2(C)NC(=O)N(CCC(=O)O)C=C2C(C)C)cc1Cl", "human RORγ (Homo sapiens, UniProt P51449)", "(88%)"),
    ("CC(C)C1=CN(CCC(=O)O)C(=O)N[C@@]1(C)c1ccc(S(=O)(=O)C2CCCC2)c(Cl)c1", "human RORγ (Homo sapiens, UniProt P51449)", "(89%)"),
    ("CC(C)CC[S+]([O-])c1ccc([C@]2(C)NC(=O)N(CCC(=O)O)C=C2C(C)C)cc1Cl (mixture of isomers)", "human RORγ (Homo sapiens, UniProt P51449)", "(90%)"),
    ("COc1cc([C@@]2(C)NC(=O)N(CCC(=O)O)C=C2C(C)C)ccc1CCC(C)(C)C", "human RORγ (Homo sapiens, UniProt P51449)", "(68%)"),
]

###

Quick list: pEC50 per entry.
Target: human RORγ (Homo sapiens)
Construct: human RORγ, from Ser253 to Lys518; expressed in transfected cells; host or cells: CHO cells (Chinese hamster ovary), transient co-transfection with pG5-Luc
Sequence (P51449 253-518): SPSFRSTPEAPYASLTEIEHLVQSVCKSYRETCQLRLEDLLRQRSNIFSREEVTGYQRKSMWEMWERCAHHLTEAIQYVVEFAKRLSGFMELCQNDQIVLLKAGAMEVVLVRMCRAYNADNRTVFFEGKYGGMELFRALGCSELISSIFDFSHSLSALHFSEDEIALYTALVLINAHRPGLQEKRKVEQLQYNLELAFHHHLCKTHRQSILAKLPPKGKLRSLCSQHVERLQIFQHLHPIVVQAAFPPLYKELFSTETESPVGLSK
Assay: In vitro assay of inhibitory effect against RORγ transcriptional activity (GAL4-hRORγ LBD luciferase reporter gene assay in CHO cells)
Type: cell-based
Conditions: GAL4-hRORγ LBD / pG5-Luc in CHO cells, 2 days incubation
pEC50: −log10 of the molar value.

The examples below pair each entry with its known result.
# molecule, pEC50
data = [
    ("CC(C)C1=CN(CC(C)(C)CC(=O)O)C(=O)N[C@]1(C)c1ccc(CCC(C)(C)C)c(Cl)c1 [Example 35]", "< 5.49"),
    ("CC(C)C1=CN(CCCC(=O)O)C(=O)N[C@@]1(C)c1ccc(CCC2CCC2)c(Cl)c1 [Example 110]", 7.96),
    ("CC(C)C1=CN(CCC(=O)O)C(=O)N[C@]1(C)c1ccc(C2CCC2)c(Cl)c1 [Example 152]", "< 4.70"),
    ("CC(C)C1=CN(CCC(=O)O)C(=O)N[C@]1(C)c1ccc(CCCC(C)(C)C)c(Cl)c1 [Example 123]", "< 5.49"),
]

Kindly consider the entry below.
Give pEC50 for the following molecule: CC(C)C1=CN(CCC(=O)O)C(=O)N[C@]1(C)c1ccc(CCCC(F)(F)F)c(Cl)c1 [Example 128]
< 4.70

###

Target: mouse RORγ (Mus musculus)
Construct: mouse RORγ, from Ile251 to Lys516; expressed in transfected cells; host or cells: CHO cells (Chinese hamster ovary), transient co-transfection with pG5-Luc
Sequence (P51450 251-516): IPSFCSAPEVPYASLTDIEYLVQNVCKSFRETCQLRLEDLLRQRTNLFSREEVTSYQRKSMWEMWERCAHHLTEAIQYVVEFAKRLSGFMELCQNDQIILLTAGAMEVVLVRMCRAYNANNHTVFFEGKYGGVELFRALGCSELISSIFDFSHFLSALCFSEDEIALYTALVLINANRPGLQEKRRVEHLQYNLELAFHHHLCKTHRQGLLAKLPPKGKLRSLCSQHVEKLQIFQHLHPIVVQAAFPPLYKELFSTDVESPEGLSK
Experiment: In vitro assay of inhibitory effect against RORγ transcriptional activity (GAL4-mRORγ LBD luciferase reporter gene assay in CHO cells)
Type: cell-based
Conditions: GAL4-mRORγ LBD luciferase reporter, CHO cells; read-out: LUC EC50 mRORγ
Method: In Vitro Assay of Inhibitory Effect Against RORγ Transcriptional Activity Inhibitory effect of a test article on transcriptional activity of RORγ was measured by means of the following reporter gene assay. […] RORγ transcriptional activity was detected as the intracellular luciferase activity using SteadyLite HTS Reporter Gene Assay System (Perkin Elmer). […] After the incubation at room temperature for 10 minutes, luminescence of each well was measured by a microplate reader. […]
parameter-measured: EC50 (nM)

# compound, EC50 / nM
records = [
    ("CC(C)C1=CN(C2CCC(C(=O)O)C2)C(=O)N[C@@]1(C)c1ccc(CCC(C)(C)C)c(Cl)c1 (single isomer, unassigned) [Example 278]", 13),
]

a: CC1(C)CC=C(c2ccc([C@]3(C)NC(=O)N(CCC(=O)O)C=C3C3CC3)cc2Cl)CC1
b: COCCC1=CN(c2ccc(C(=O)O)c(OC)c2)C(=O)N[C@@]1(C)c1ccc(CC2CCCCC2)c(Cl)c1
Which entry shows the lesser value of EC50 here, a or b ? Write down the label attached to your selection.
b
(b: 14 nM, a: 48 nM)
